Test: Oral bioavailability in Sprague-Dawley rat at 3 mg/kg by LC-MS/MS analysis
Assay type: ADME, organism-based
Conditions: in vivo
# bioavailability annotations
Record the result as a number with its unit.

Use the examples below as a reference point.
Cn1cc(-c2ccc3c(c2)CC[C@@]32OC(=O)N(CC(=O)N3Cc4cc(F)ccc4OC[C@H]3C(F)(F)F)C2=O)cn1 : 35%
CNC(=O)Nc1ccc2c(c1)CC[C@@]21OC(=O)N(CC(=O)N2Cc3ccccc3CC[C@H]2C2CC2)C1=O : 6%
Cn1cc(-c2ccc3c(c2)CC[C@]32NC(=O)N(CC(=O)N3Cc4cc(F)ccc4OC[C@H]3C(F)(F)F)C2=O)cn1 : 56%
CNC(=O)Nc1ccc2c(c1)CC[C@@]21OC(=O)N(CC(=O)N2Cc3ccccc3CC[C@H]2C(F)(F)F)C1=O : 13.5%

Here's the next entry for you.
[Q] So what's the measured bioavailability for this one? "Cn1cc(-c2ccc3c(c2)CC[C@]32NC(=O)N(CC(=O)N3Cc4cc(F)ccc4OC[C@H]3C3CC3)C2=O)cn1"
[A] 21%

---

Test: Intrinsic clearance in mouse liver microsomes assessed per mg protein at 0.1 uM preincubated for 10 mins followed by NADPH addition and measured up to 60 mins by UPLC-MS/MS analysis
Type: ADME, Microsome
Conditions: read-out: CLH
// NB: equality with 200 µL/min/mg counts as rule not met; only microsomal CLint at 0.1 µM strictly below is rule met

Some solved cases for reference:
Cn1cc(-c2ccc3c(c2)CC[C@@]32OC(=O)N(CC(=O)N3Cc4cc(F)ccc4OC[C@H]3C3CC3)C2=O)cn1 : rule met
Cn1cc(-c2ccc3c(c2)CC[C@@]32OC(=O)N(CC(=O)N3Cc4cc(F)ccc4OC[C@H]3C(F)(F)F)C2=O)cn1 : rule met
CNC(=O)Nc1ccc2c(c1)CC[C@@]21OC(=O)N(CC(=O)N2Cc3ccccc3CC[C@H]2C(F)(F)F)C1=O : rule met
CNC(=O)Nc1ccc2c(c1)CC[C@@]21OC(=O)N(CC(=O)N2Cc3ccc(F)cc3CC[C@H]2C(F)(F)F)C1=O : rule met
CNC(=O)Nc1ccc2c(c1)CC[C@@]21OC(=O)N(CC(=O)N2Cc3ccc(F)cc3CC[C@H]2C)C1=O : rule not met

Now examine the next entry.
[Q] State whether 200 µL/min/mg exceeds microsomal CLint at 0.1 µM recorded for "CNC(=O)Nc1ccc2c(c1)CC[C@@]21OC(=O)N(CC(=O)N2Cc3ccccc3CC[C@H]2C(C)C)C1=O" .
[A] rule not met

---

# fraction unbound annotations
Test: Protein binding in rat plasma
Format: ADME, cell-free
Settings: read-out: PPB (converted)
The response must contain the number and no unit.

Use the examples below as a reference point.
Cn1cc(-c2ccc3c(c2)CC[C@]32NC(=O)N(CC(=O)N3Cc4cc(F)ccc4OC[C@H]3C(F)(F)F)C2=O)cn1 : 0.018
Cn1cc(-c2ccc3c(c2)CC[C@@]32OC(=O)N(CC(=O)N3Cc4cc(F)ccc4OC[C@H]3C(F)(F)F)C2=O)cn1 : 0.006
Cn1cc(-c2ccc3c(c2)CC[C@]32NC(=O)N(CC(=O)N3Cc4cc(F)ccc4OC[C@H]3C3CC3)C2=O)cn1 : 0.021

Here's the next entry for you.
[Q] So what's the measured fraction unbound for this one? "Cn1cc(-c2ccc3c(c2)CC[C@@]32OC(=O)N(CC(=O)N3Cc4cc(F)ccc4OC[C@H]3C3CC3)C2=O)cn1"
[A] 0.007
